Consider the following variants; for each one, report its protein stability index.
B1: ANKRD40 (parent)
chain: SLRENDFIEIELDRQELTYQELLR

# Variants of: B1
# ASSAY_OVERVIEW: protein stability index of a GFP-peptide fusion (GPS, HEK-293T) (PSI 1-6); higher = more stable;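 further: lentivirally expressed fusions sorted by FACS into six bins by GFP to DsRed ratio, PSI derived from sequencing read proportions per bin multiplied by bin number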
# REPORTED_CONDITIONS: c terminus: a fixed tail appended
Number only, no unit.

[ask] So what's the measured protein stability index for this one? I10M
[reply] 3.62

[ask] Given D13C , state its recorded protein stability index.
[reply] 2.35

[ask] # query: protein stability index of entry E11L
[reply] 1.94

[ask] Query: protein stability index; subject: E16C
[reply] 2.46

[ask] I would be grateful if you could share the reported protein stability index for D6G .
[reply] 2.82

[ask] Recorded protein stability index for D6N , please?
[reply] 2.99

[ask] Consider the variant shown here: L23T What is its recorded protein stability index?
[reply] 3.59

[ask] Which protein stability index value is on record for D13H ?
[reply] 2.22

[ask] protein stability index lookup needed for N5D , thanks.
[reply] 2.82

[ask] Would you kindly share the measured protein stability index for L23D ?
[reply] 4.25

[ask] So what's the measured protein stability index for this one? R24W
[reply] 2.26

Reference source: the supplement of paper PMC10567573
